Measured IC50 by item
Test: Antiproliferative activity against human BT069 cells incubated for 9 to 12 days by IncuCyte zoom live-cell imaging analysis
Format: functional, cell-based

>>> recorded_measurement("Nc1ncnc2c1ccn2[C@@H]1O[C@H]([C@H](O)c2ccccc2)[C@@H](O)[C@H]1O")
"30 nM"

Let us move to another entry and its IC50.
For reference, reported IC50 for O=C(NC[C@H](O)CN1CCc2ccccc2C1)c1ccnc(NC2CCC2)c1 stands at 690 nM

* * *

Measured IC50 by item
Assay: Antiproliferative activity against human BT119 cells incubated for 9 to 12 days by IncuCyte zoom live-cell imaging analysis
Type: functional, cell-based
Numeric answer only, unit µM assumed.

>>> recorded_measurement("O=C(NC[C@H](O)CN1CCc2ccccc2C1)c1ccnc(NC2CCC2)c1")
8.64

Let us move to another entry and its IC50.
For reference, reported IC50 for Nc1ncnc2c1ccn2[C@@H]1O[C@H]([C@H](O)c2ccccc2)[C@@H](O)[C@H]1O stands at 0.23

* * *

Assay: Antiproliferative activity against human BT147 cells incubated for 9 to 12 days by IncuCyte zoom live-cell imaging analysis
Type: functional, cell-based
observation-type: pIC50
Note on pIC50: it is the negative log10 of concentration, concentration in mol/L.

>>> recorded_measurement("O=C(NC[C@H](O)CN1CCc2ccccc2C1)c1ccnc(NC2CCC2)c1")
6.77

For reference, reported pIC50 for Nc1ncnc2c1ccn2[C@@H]1O[C@H]([C@H](O)c2ccccc2)[C@@H](O)[C@H]1O stands at 8.00

* * *

Experiment: Antiproliferative activity against human BT301 cells incubated for 9 to 12 days by IncuCyte zoom live-cell imaging analysis
Type: functional, cell-based
observation-type: pIC50
Note on pIC50: it is the negative log10 of concentration, concentration in mol/L.

For reference, reported pIC50 for O=C(NC[C@H](O)CN1CCc2ccccc2C1)c1ccnc(NC2CCC2)c1 stands at 7.00

* * *

Measured pEC50 by item
Experiment: Antiproliferative activity against human G477 cells incubated for 9 to 12 days by IncuCyte zoom live-cell imaging analysis
Type: functional, cell-based
Note on pEC50: it is the negative log10 of concentration, concentration in mol/L.

>>> recorded_measurement("O=C(NC[C@H](O)CN1CCc2ccccc2C1)c1ccnc(NC2CCC2)c1")
5.50

Let us move to another entry and its pEC50.
For reference, reported pEC50 for Nc1ncnc2c1ccn2[C@@H]1O[C@H]([C@H](O)c2ccccc2)[C@@H](O)[C@H]1O stands at 7.40

* * *

Assay: Antiproliferative activity against human G895 cells incubated for 9 to 12 days by IncuCyte zoom live-cell imaging analysis
Format: functional, cell-based
observation-type: IC50
I'd appreciate it if you wrote the number followed by its unit.

>>> recorded_measurement("Nc1ncnc2c1ccn2[C@@H]1O[C@H]([C@H](O)c2ccccc2)[C@@H](O)[C@H]1O")
"0.1 µM"

Let us move to another entry and its IC50.
For reference, reported IC50 for O=C(NC[C@H](O)CN1CCc2ccccc2C1)c1ccnc(NC2CCC2)c1 stands at 0.64 µM

* * *

Assay: Antiproliferative activity against human G566 cells incubated for 9 to 12 days by IncuCyte zoom live-cell imaging analysis
Format: functional, cell-based
observation-type: pIC50
Note on pIC50: it is the negative log10 of concentration, concentration in mol/L.

For reference, reported pIC50 for O=C(NC[C@H](O)CN1CCc2ccccc2C1)c1ccnc(NC2CCC2)c1 stands at 5.69

For reference, reported pIC50 for Nc1ncnc2c1ccn2[C@@H]1O[C@H]([C@H](O)c2ccccc2)[C@@H](O)[C@H]1O stands at 7.52

* * *

Assay: Drug concentration in NSG mouse brain at 100 mg/kg, po measured after 24 hrs
Type: ADME, organism-based
Details: read-out: Ct
observation-type: concentration at 24 h (nM)
Numeric answer only, unit nM assumed.

For reference, reported concentration at 24 h for Nc1ncnc2c1ccn2[C@@H]1O[C@H]([C@H](O)c2ccccc2)[C@@H](O)[C@H]1O stands at 269

* * *

Measured EC50 by item
Experiment: Antiproliferative activity against human G626 cells incubated for 9 to 12 days by IncuCyte zoom live-cell imaging analysis
Assay type: functional, cell-based
Numeric answer only, unit nM assumed.

>>> recorded_measurement("O=C(NC[C@H](O)CN1CCc2ccccc2C1)c1ccnc(NC2CCC2)c1")
480

Let us move to another entry and its EC50.
For reference, reported EC50 for Nc1ncnc2c1ccn2[C@@H]1O[C@H]([C@H](O)c2ccccc2)[C@@H](O)[C@H]1O stands at 10

* * *

Test: Antiproliferative activity against human BT50 cells incubated for 9 to 12 days by IncuCyte zoom live-cell imaging analysis
Assay type: functional, cell-based
observation-type: IC50 (nM)
Numeric answer only, unit nM assumed.

For reference, reported IC50 for Nc1ncnc2c1ccn2[C@@H]1O[C@H]([C@H](O)c2ccccc2)[C@@H](O)[C@H]1O stands at 20

* * *

Assay: Antiproliferative activity against human G583 cells incubated for 9 to 12 days by IncuCyte zoom live-cell imaging analysis
Format: functional, cell-based
observation-type: pEC50
Note on pEC50: it is the negative log10 of concentration, concentration in mol/L.

>>> recorded_measurement("Nc1ncnc2c1ccn2[C@@H]1O[C@H]([C@H](O)c2ccccc2)[C@@H](O)[C@H]1O")
7.82

Let us move to another entry and its pEC50.
For reference, reported pEC50 for O=C(NC[C@H](O)CN1CCc2ccccc2C1)c1ccnc(NC2CCC2)c1 stands at 6.36

* * *

Assay: Antiproliferative activity against human G851 cells incubated for 9 to 12 days by IncuCyte zoom live-cell imaging analysis
Assay type: functional, cell-based
Measured IC50 by item
Numeric answer only, unit nM assumed.

>>> recorded_measurement("O=C(NC[C@H](O)CN1CCc2ccccc2C1)c1ccnc(NC2CCC2)c1")
570

Let us move to another entry and its IC50.
For reference, reported IC50 for Nc1ncnc2c1ccn2[C@@H]1O[C@H]([C@H](O)c2ccccc2)[C@@H](O)[C@H]1O stands at 10

* * *

Tested on: G411
Experiment: Antiproliferative activity against human G411 cells incubated for 9 to 12 days by IncuCyte zoom live-cell imaging analysis
Format: functional, cell-based
Measured pEC50 by item
Note on pEC50: it is the negative log10 of concentration, concentration in mol/L.

>>> recorded_measurement("O=C(NC[C@H](O)CN1CCc2ccccc2C1)c1ccnc(NC2CCC2)c1")
7.00

For reference, reported pEC50 for Nc1ncnc2c1ccn2[C@@H]1O[C@H]([C@H](O)c2ccccc2)[C@@H](O)[C@H]1O stands at 7.72
